These entries and their values trace back to patent US20250340659A1.

Molecular target: T1, recombinant canine OX40L ECD-TNCc-HIS protein (canine)
T1 construct: also called Trimeric OX40L probe (HIS tag); trimeric canine OX40L
T1 chain: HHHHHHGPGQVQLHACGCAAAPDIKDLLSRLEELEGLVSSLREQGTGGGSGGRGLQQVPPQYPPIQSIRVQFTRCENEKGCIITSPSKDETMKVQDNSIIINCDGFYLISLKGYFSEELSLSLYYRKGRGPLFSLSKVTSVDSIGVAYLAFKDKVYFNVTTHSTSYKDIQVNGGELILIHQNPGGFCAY
Experiment: SPR Koff (kd2)
measureName: koff
Just the number plus its unit, please.

Examples with their reported koff follow.
{"binder": "PMX105 (antibody, V domains shown) VH: EVQLVESGGDLVKPGGSLRLSCVASGFTFNTYHMNWVRQAPGKGLHWVAFINSGGSGTSYEDTVQGRFTISRDYAKNTLYLQMNSLRAEDTAVYYCACGSIWTHFDYWGQGTLVTVSS VL: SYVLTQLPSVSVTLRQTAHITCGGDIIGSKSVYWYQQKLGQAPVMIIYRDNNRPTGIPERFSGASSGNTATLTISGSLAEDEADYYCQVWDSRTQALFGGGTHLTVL", "koff": "1.23 s⁻¹"}
{"binder": "PMX063 (antibody, V domains shown, also called PMX63) VH: EVQLVESGGDLVRPGGSLRLSCVASGFTFNNYHMSWVRQAPGKGLQWVAFINSGGSGTTFADVVRGRFTISRDYAKNALYLQMNSLRAEDTAVYYCASGSIWTHFDYWGQGTLVTVSS VL: SFVLTQLPSVSVTLRQTARITCGGDIIGSKNVYWYQQRLGQAPVLIIYRDNNRPTGIPERFSGASSGNTATLTISGALAEDEADYYCQVWDNSNKAMFGGGTHLTVL", "koff": "5.21 s⁻¹"}

Next, consider the following binder.
Item PMX064 (antibody, V domains shown, also called PMX64) VH: EVQLVESGGDLVKPGGSLRLSCVASGFTFSSYHMSWVRQAPGKGLQWVAYITSGGITTSYADAVKGRFTISRDNAKNTLYLQMNSLRAEDTAVYYCASDLVLILGGADYWGQGTLVTVSS VL: SYELTQPPSVNVTLSETAHITCGGDSIGRKYVQWIQQNPGQAPVVIIYKDSNRPTGIPERFSGANSGNTATLTISGALAEDEADYYCQVGDSGTKAVFGGGTHLTVL : provide koff 0.000921 s⁻¹
